# ASSAY PROCEDURE: chemical genetic growth profiling, strain panel (AID 1159580);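 further: tested at 20 µM; growth read once vehicle control cultures reached saturation at 30 °C; 1 = growth at the plate median or of vehicle wells; lower values mean less growth of the strain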
# MEASUREMENT SETUP: S. cerevisiae deletion strains, growth OD, locus YML120C, strain ndi1, active compounds read low
The whole screen tested about 5,500 compounds, of which about 2,000 (36%) were called active. Not shown: some 18% with an inconclusive outcome. This is one part of the list.
OUTCOME MEASURE: normalized growth
Numbers only.

c1ccc2c(c1)[nH]c1cnccc12 : 1
CC1=C(C(=O)O)N2C(=O)[C@@H](NC(=O)[C@H](N)C3=CCC=CC3)C2SC1 (stereo partly specified) : 1.02
COc1ccc2c(c1)[nH]c1c(C)nccc12 : 1
Cc1cccc(N(C)C(=S)Oc2ccc3ccccc3c2)c1 : 1
CC(=O)OC1CCC2C3CCc4cc(O)ccc4C3CCC12C (stereo unspecified) : 0.98

Now, please, on to the next compound.
Identify measured normalized growth corresponding to Cc1nccc2c1[nH]c1ccccc12
0.982

###

# ASSAY PROCEDURE: chemical genetic growth profiling, strain panel (AID 1159580);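 further: tested at 20 µM; growth read once vehicle control cultures reached saturation at 30 °C; 1 = growth at the plate median or of vehicle wells; lower values mean less growth of the strain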
# MEASUREMENT SETUP: S. cerevisiae deletion strains, growth OD, locus YJL129C, strain trk1, active compounds read low
Hit rate of the full screen: of about 5,500 compounds, about 2,000 (36%) were called active. Roughly 18% stayed inconclusive and do not appear here. This is one part of the list.
Please respond with reported normalized growth for every item in the list.
One number for each entry.

These solved cases illustrate the format of a correct answer.
CC1(C)S[C@@H]2[C@H](NC(=O)COc3ccccc3)C(=O)N2[C@H]1C(=O)O : 0.955
CC(C)(O)CC[C@@H](O)[C@](C)(O)C1CC[C@@]2(O)C3=CC(=O)C4C[C@@H](O)[C@@H](O)C[C@]4(C)C3CC[C@]12C (some centres undefined) : 1.01
C[C@]12CCC3C(CC[C@H]4C[C@@H](O)CC[C@]34C)C1CCC2=O (some centres undefined) : 0.948

Query compound follows.
Consider the compound CC(=O)O[C@@H]1CC2C(C)(C)[C@H](O)C[C@H](O)[C@]2(C)C2CC[C@@]3(C)C(=CC(=O)O[C@H]3c3ccoc3)[C@@]21C (some centres undefined) and give its recorded normalized growth.
0.994

###

# ASSAY PROCEDURE: chemical genetic growth profiling, strain panel (AID 1159580);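 further: tested at 20 µM; growth read once vehicle control cultures reached saturation at 30 °C; 1 = growth at the plate median or of vehicle wells; lower values mean less growth of the strain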
# MEASUREMENT SETUP: S. cerevisiae deletion strains, growth OD, locus YPL209C, strain IPL1, active compounds read low
Out of some 5,500 compounds screened, about 2,000 (36%) were called active. Not shown: some 18% with an inconclusive outcome. The list shows a part of the results.
Would you kindly list normalized growth for each of these molecules?
Answers are plain numbers.

N#C/C(=N/Nc1ccc(Cl)cc1)C(=O)C1CC1 : 0.853
Cc1c(C(=O)NCCNc2ccc(C(F)(F)F)cc2[N+](=O)[O-])cnn1-c1ccc(F)cc1 : 0.979

For each of the molecules below, note its normalized growth.
1. FC(F)(F)c1ccc(NC(=S)Nc2ccc(C(F)(F)F)cc2Cl)c(Cl)c1
2. CC(C)(C)c1cc(C(=O)/C(C#N)=N\Nc2ccc(Cl)cc2)no1
3. N#C/C(=N/Nc1ccc(Cl)cc1)C(N)=S
4. O=C(Nc1ccc(OC(F)(F)F)cc1)Nc1cncc(C(F)(F)F)c1
5. N#C/C(=C\C=C\c1ccccc1)c1nc2ccccc2[nH]1
6. N#C/C(=N/Nc1ccc(C(F)(F)F)cc1)C(=O)C1CC1

1: 0.972; 2: 0.97; 3: 0.601; 4: 0.998; 5: 0.963; 6: 0.955

Could you tell me normalized growth for each of these molecules? They are listed below.
1. N#CC(C#N)=NNc1cc(C(F)(F)F)ccc1OCC(F)(F)F
2. CCOC(=O)C(NC(C)=O)(Nc1ccc(F)c(Cl)c1)C(F)(F)F (stereo unspecified)
3. CN(NC(=S)Nc1cc(Cl)ccc1Cl)c1ccc(C(F)(F)F)cc1[N+](=O)[O-]

[0.928, 0.988, 0.977]
